Entries and their Viable cell count values follow.
tested on: mouse long-term hematopoietic stem cells; assay: Reproducibility and concentration dependence test: 1-week culture of sorted Hoxb5-tri-mCherry mouse long-term hematopoietic stem cells, flow cytometry; format: cell-based; conditions: Table 4; compound 0.3 μM; day 7 of culture; n=2

[
  {
    "compound": "CO[C@@H]1O[C@@H]2O[C@@]3(C)CC[C@H]4[C@H](C)CC[C@@H]([C@H]1C)[C@@]24OO3 [Example 1-35]",
    "Viable cell count [cell]": 544.5
  },
  {
    "compound": "C[C@@H]1CC[C@H]2[C@@H](C)C(=O)O[C@@H]3O[C@@]4(C)CC[C@@H]1[C@]32OO4 [Example 1-33, artemisinin, reference compound]",
    "Viable cell count [cell]": 309.5
  },
  {
    "compound": "C[C@H]1[C@H](NS(C)(=O)=O)O[C@@H]2O[C@@]3(C)CC[C@H]4[C@H](C)CC[C@@H]1[C@@]24OO3 [Example 1-11]",
    "Viable cell count [cell]": 267.0
  },
  {
    "compound": "C[C@H]1[C@@H](Oc2ccccc2)O[C@@H]2O[C@@]3(C)CC[C@H]4[C@H](C)CC[C@@H]1[C@@]24OO3 [Example 1-21]",
    "Viable cell count [cell]": 2.0
  },
  {
    "compound": "C[C@H]1[C@@H](CN)O[C@@H]2O[C@@]3(C)CC[C@H]4[C@H](C)CC[C@@H]1[C@@]24OO3 [Example 1-17]",
    "Viable cell count [cell]": 902.0
  },
  {
    "compound": "CO[C@H]1O[C@@H]2O[C@@]3(C)CC[C@H]4[C@H](C)CC[C@@H]([C@H]1C)[C@@]24OO3 [Example 1-30, artemether, reference compound]",
    "Viable cell count [cell]": 184.0
  },
  {
    "compound": "C[C@H]1[C@@H](C(N)=O)O[C@@H]2O[C@@]3(C)CC[C@H]4[C@H](C)CC[C@@H]1[C@@]24OO3 [Example 1-15]",
    "Viable cell count [cell]": 540.0
  },
  {
    "compound": "C[C@H]1[C@H](OC(=O)CCC(=O)O)O[C@@H]2O[C@@]3(C)CC[C@H]4[C@H](C)CC[C@@H]1[C@@]24OO3 [Example 1-32, artesunate, reference compound]",
    "Viable cell count [cell]": 355.5
  },
  {
    "compound": "C[C@H]1[C@@H](O)O[C@@H]2O[C@@]3(C)CC[C@H]4[C@H](C)CC[C@@H]1[C@@]24OO3 [Example 1-29, artenimol, reference compound]",
    "Viable cell count [cell]": 215.0
  },
  {
    "compound": "CC(=O)OCCOC1O[C@@H]2O[C@@]3(C)CC[C@H]4[C@H](C)CC[C@@H]([C@H]1C)[C@@]24OO3 (stereo in doubt) [Example 1-26]",
    "Viable cell count [cell]": 48.5
  },
  {
    "compound": "C[C@H]1[C@H](N(C)C)O[C@@H]2O[C@@]3(C)CC[C@H]4[C@H](C)CC[C@@H]1[C@@]24OO3 [Example 1-12]",
    "Viable cell count [cell]": 262.0
  },
  {
    "compound": "CS[C@@H]1O[C@@H]2O[C@@]3(C)CC[C@H]4[C@H](C)CC[C@@H]([C@H]1C)[C@@]24OO3 [Example 1-3]",
    "Viable cell count [cell]": 324.0
  }
]
